Target: SCD5 (Homo sapiens, UniProt Q86SK9)
Construct: host or cells: S. cerevisiae ole1Δ strain (W303 pdr1Δ pdr3Δ background), plasmid pRS316 with TDH3 promoter and CYC1 terminator
Sequence (Q86SK9 1-330): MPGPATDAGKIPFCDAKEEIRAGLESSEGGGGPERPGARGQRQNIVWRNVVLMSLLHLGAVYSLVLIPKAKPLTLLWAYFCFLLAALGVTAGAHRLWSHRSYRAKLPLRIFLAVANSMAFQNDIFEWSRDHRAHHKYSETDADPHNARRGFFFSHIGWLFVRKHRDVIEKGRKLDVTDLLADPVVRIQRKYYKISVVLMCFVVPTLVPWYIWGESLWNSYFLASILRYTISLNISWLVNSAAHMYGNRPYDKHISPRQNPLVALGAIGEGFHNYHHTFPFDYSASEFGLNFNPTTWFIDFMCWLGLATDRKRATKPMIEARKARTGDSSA
Experiment: Growth inhibition of humanized yeast strain expressing SCD5 as sole desaturase
Type: cell-based
Settings: humanized yeast strain, 40 h
Please note: IC50 exactly at 100 nM is no. Only values below 100 nM get yes.

{"smiles": "CCC(=O)N1CCC(c2cc(-c3cc4c(cn3)cnn4C(C)C)no2)CC1", "label_value": "no"}
{"smiles": "COC(=O)N1CCC(c2nc(-c3ccc4cnn(C5CN(C(=O)OC(C)(C)C)C5)c4c3)no2)CC1", "label_value": "no"}
{"smiles": "C[C@@H]1CN(c2noc(-c3ccc4cnn(C5COC5)c4c3)n2)CCN1C(=O)OC(C)(C)C", "label_value": "no"}
{"smiles": "O=C(N1CCN(c2noc(-c3ccc4cnn(C5COC5)c4c3)n2)CC(F)(F)C1)C1(F)CC1", "label_value": "yes"}
{"smiles": "COCC(C)(C)n1ncc2ccc(-c3noc(N4CCN(C(=O)OC(C)(C)C)CC4)n3)cc21", "label_value": "no"}
{"smiles": "O=C(C1CCC1)N1CCCN(c2noc(-c3ccc4cnn(C5COC5)c4c3)n2)CC1", "label_value": "no"}
{"smiles": "CC(C)n1ncc2ccc(-c3nc(N4CCNCC4)no3)cc21", "label_value": "no"}
{"smiles": "CC(C)(C)OC(=O)N1CCC(c2noc(-c3cccc([C@@H]4CCOC4)c3)n2)CC1", "label_value": "yes"}
{"smiles": "CC(C)C(=O)N1CCC(c2noc(-c3ccc4cnn(C5COC5)c4c3)n2)CC1", "label_value": "no"}
{"smiles": "COC(=O)N1CCN(c2noc(-c3ccnc(OC4COC4)c3)n2)CC1", "label_value": "no"}
{"smiles": "CC(C)(C)OC(=O)N1CC=C(c2ccc(-c3ccc4cnn(C5COC5)c4c3)nc2)CC1", "label_value": "no"}
{"smiles": "O=C(C1CCC1)N1CCC(c2noc(-c3cc(F)c4cnn(C5COC5)c4c3)n2)CC1", "label_value": "yes"}
